- System: pBMC from patients with CLL
- Test Method Notes: Cytotoxicity of several antineoplastic agents on pBMC (LC90), fixed volume flow cytometry
- Assay type: cell-based, human
- Test Parameters: pBMC of CLL patient #5, ex vivo; in µg/mL
Measurement Type: LC90

[
  {
    "Compound": "Nc1nc(Cl)nc2c1ncn2[C@H]1C[C@H](O)[C@@H](CO)O1 [Cladribine ®, Cladribine]",
    "Value": 0.083
  },
  {
    "Compound": "Nc1nc(F)nc2c1ncn2[C@@H]1O[C@H](COP(=O)(O)O)[C@@H](O)[C@@H]1O [Fludarabine phosphate]",
    "Value": 0.46
  },
  {
    "Compound": "CC[C@]1(O)C[C@H]2CN(CCc3c([nH]c4ccccc34)[C@@](C(=O)OC)(c3cc4c(cc3OC)N(C=O)[C@H]3[C@@](O)(C(=O)OC)[C@H](OC(C)=O)[C@]5(CC)C=CCN6CC[C@]43[C@@H]65)C2)C1 [Oncovin ®, Vincristin]",
    "Value": 0.33
  },
  {
    "Compound": "O=C1c2c(O)ccc(O)c2C(=O)c2c(NCCNCCO)ccc(NCCNCCO)c21 [Novantrone ®, Mitoxantrone]",
    "Value": 0.11
  },
  {
    "Compound": "C[C@]12C=CC(=O)C=C1CC[C@@H]1[C@@H]2[C@@H](O)C[C@@]2(C)[C@H]1CC[C@]2(O)C(=O)CO [Prednisolone ®, Prednisolone]",
    "Value": 12.67
  }
]

###

- Tested on: pBMC from patients with CLL
- Test Method Notes: Cytotoxicity of several antineoplastic agents on pBMC (LC90), fixed volume flow cytometry
- Format: cell-based, human
- Test Parameters: pBMC of CLL patient #20, ex vivo; in µg/mL
- Text: The necessary peripheral blood (PB) samples from adult patients diagnosed with chronic lymphatic leukaemia (CLL) were collected into heparin during routine diagnosis prior to administration of chemotherapy.
Measurement Type: LC90

[
  {
    "Molecule": "Nc1nc(Cl)nc2c1ncn2[C@H]1C[C@H](O)[C@@H](CO)O1",
    "Measurement Type": "LC90",
    "Value": 0.006
  },
  {
    "Molecule": "CC[C@]1(O)C[C@H]2CN(CCc3c([nH]c4ccccc34)[C@@](C(=O)OC)(c3cc4c(cc3OC)N(C=O)[C@H]3[C@@](O)(C(=O)OC)[C@H](OC(C)=O)[C@]5(CC)C=CCN6CC[C@]43[C@@H]65)C2)C1",
    "Measurement Type": "LC90",
    "Value": 0.42
  },
  {
    "Molecule": "C[C@]12C=CC(=O)C=C1CC[C@@H]1[C@@H]2[C@@H](O)C[C@@]2(C)[C@H]1CC[C@]2(O)C(=O)CO",
    "Measurement Type": "LC90",
    "Value": 99.92
  },
  {
    "Molecule": "O=C1c2c(O)ccc(O)c2C(=O)c2c(NCCNCCO)ccc(NCCNCCO)c21",
    "Measurement Type": "LC90",
    "Value": 0.02
  },
  {
    "Molecule": "Nc1nc(F)nc2c1ncn2[C@@H]1O[C@H](COP(=O)(O)O)[C@@H](O)[C@@H]1O [Fludarabine phosphate]",
    "Measurement Type": "LC90",
    "Value": 0.00
  }
]
